# PROCEDURE DETAILS: solvent given as SMILES
# EXPERIMENTAL PARAMETERS: in CC(C)=O
Catalogue of absorption maximum values
Return type: number; implicit unit nm.

See these solved cases before continuing.
I'd like to know its absorption maximum. The compound in question is `CN(C)c1ccc(C2=Nc3sc4cc(C(F)(F)F)ccc4[n+]3[B-](F)(F)O2)cc1`
431

Same read-out for `CCC1=C(C)C(=O)n2c1cc1c(C)cc(C)n1c2=O` ?
412

Same read-out for `O=C1c2ccc3c4ccc5c6c(ccc(c7ccc(c2c37)C(=O)N1c1ccncc1)c64)C(=O)N(c1ccncc1)C5=O` ?
519

***
I'd like to know its absorption maximum. The compound in question is `CCN(CC)c1ccc([N+]2=Cc3ccc4c5c(ccc4c3O[B-]2(c2c(F)c(F)c(F)c(F)c2F)c2c(F)c(F)c(F)c(F)c2F)C=[N+](c2ccc(N(CC)CC)cc2)[B-](c2c(F)c(F)c(F)c(F)c2F)(c2c(F)c(F)c(F)c(F)c2F)O5)cc1`
555

Same read-out for `CCC1=C(C)C2=Cc3cccn3[B-](F)(F)[N+]2=C1C` ?
503.5

Same read-out for COC(=O)C(Cc1ccc2oc(-c3ccc(N(C)C)cc3)nc2c1)NC(=O)OC(C)(C)C (stereo not drawn) ?
343.1

Same read-out for `CN(C)c1ccc(C2=Nc3sc4ccccc4[n+]3[B-](F)(F)O2)cc1` ?
425

Same read-out for `O=[N+]([O-])c1ccc(NCCN(Cc2c3ccccc3cc3ccccc23)c2ccc([N+](=O)[O-])cc2[N+](=O)[O-])c([N+](=O)[O-])c1` ?
371

* * *

# PROCEDURE DETAILS: solvent given as SMILES
# EXPERIMENTAL PARAMETERS: in CC(C)O
Catalogue of absorption maximum values
Return type: number; implicit unit nm.

I'd like to know its absorption maximum. The compound in question is `COc1ccc(C(=O)/C=C2\C(=O)Nc3ccccc32)cc1`
345

***
I'd like to know its absorption maximum. The compound in question is COc1ccc(C2CC(c3ccc(O)cc3)=NN2c2ccc(S(N)(=O)=O)cc2)cc1 (centres undefined)
358

Same read-out for `CN(C)c1ccc2nc(-c3ccccc3)sc2c1` ?
361

Same read-out for `Cc1cc(O)c(C(C)C)cc1/N=C/c1ccc(C(F)(F)F)cc1` ?
367

Same read-out for `CN(C)c1ccc(/C=C/C=C2\CC/C(=C\c3ccc(N(C)C)cc3)C2=O)cc1` ?
493

Same read-out for `O=C1Nc2ccccc2/C1=C/C(=O)c1ccc([N+](=O)[O-])cc1` ?
345

Same read-out for `CC1(C)CCc2c(c3ccccc3c3nc4c(nc23)c2c(c3ccccc34)OC(C)(C)CC2)O1` ?
431.97

Same read-out for `CN(C)c1ccc(/C=C2\CC/C(=C\c3ccc(C#N)cc3)C2=O)cc1` ?
471

Same read-out for `CN(C)c1ccc(/C=C/c2cc[n+](C)cc2)cc1` ?
477

* * *

# PROCEDURE DETAILS: solvent given as SMILES
# EXPERIMENTAL PARAMETERS: in CCOCC
Catalogue of absorption maximum values
Return type: number; implicit unit nm.

See these solved cases before continuing.
I'd like to know its absorption maximum. The compound in question is `O=Cc1ccc(N(c2ccc(C=O)cc2)c2ccc(-c3ccc4c(c3)C(=O)c3ccccc3C4=O)cc2)cc1`
369

Same read-out for `Oc1ccccc1/C=N/N=C/c1ccccc1O` ?
358

Same read-out for `CC(C)(C)c1ccc2c(c1)c1cc3c4cc(C(C)(C)C)ccc4c4c5c6ccc(C(C)(C)C)cc6c6cc7c8cc(C(C)(C)C)ccc8c8c2c1c(c34)c(c78)c65` ?
541.57

***
I'd like to know its absorption maximum. The compound in question is `Cc1ccc(-c2cc(-c3ccccc3)c(C#N)c(=S)[nH]2)cc1`
440

Same read-out for `Cn1cccc1-c1ccc(C#N)cc1` ?
321

Same read-out for `CN(C)c1ccc(/C=C/c2ccc(C#N)cc2)cc1` ?
380

Same read-out for `CN(C)c1ccc(/C=C2\CC/C(=C\c3ccc(C#N)cc3)C2=O)cc1` ?
438

Same read-out for `CC(C)(C)c1ccc(-c2nc3c4ccc(-c5cc6ccccc6c6ccccc56)cc4c4cc(-c5cc6ccccc6c6ccccc56)ccc4c3n2-c2ccc(C(C)(C)C)cc2)cc1` ?
234

Same read-out for `c1ccc2nc3cccc(-c4ccc(-n5c6ccccc6c6ccccc65)cc4)c3cc2c1` ?
358
